# Test system: L1210 leukemia ip in BDF1 mice, survival T/C
# ASSAY METHOD TEXT: NCI In Vivo Anticancer Drug Screen. Data for tumor model L1210 Leukemia (intraperitoneal) in B6D2F1 (BDF1) mice
# CONDITION DESCRIPTION: endpoint: mean survival time; dose: 100.0 mg/kg/injection; schedule: Q01DX009 (ip); vehicle: Klucel (hydroxypropylcellulose) (HPC); higher = longer survival
Inconclusive results and toxic doses are left out.

COMPOUND	T/C
COc1ccc(C(C)=O)cc1N	98 % of control
N#CC(C(N)=O)C1CC(=O)Oc2ccccc21 (configuration not stated)	105 % of control
CN(C)c1ccc(C=O)c(Oc2ccccc2)c1	96 % of control
CS(C)=O.CS(C)=O.[Cl][Sn]([Cl])([Cl])[Cl]	106 % of control
NC(=S)N/N=C/c1c[nH]c2ccccc12	95 % of control
O=C(Nc1ccccc1F)OCCOc1ccc([N+](=O)[O-])cc1	96 % of control
CC1(C#N)c2ccccc2C=CN1C(=O)c1ccccc1 (configuration not stated)	97 % of control
Cc1cc(C)c(NC(=S)NC(=O)c2cccc3ccccc23)c(C)c1	98 % of control
O=Cc1ccc(OC(=O)Nc2ccc([N+](=O)[O-])cc2)cc1	92 % of control
CCCCCCCCC(O)CCCCC (configuration not stated)	100 % of control
Cc1ccc(NC(=O)OCCOc2ccc([N+](=O)[O-])cc2)c([N+](=O)[O-])c1	91 % of control
O=c1[nH]cnc2nc(-c3ccc(Cl)cc3)c(-c3ccc(Cl)cc3)nc12	103 % of control

----------
# Tested on: L1210 leukemia ip in BDF1 mice, survival T/C
# ASSAY METHOD TEXT: NCI In Vivo Anticancer Drug Screen. Data for tumor model L1210 Leukemia (intraperitoneal) in B6D2F1 (BDF1) mice
# CONDITION DESCRIPTION: endpoint: mean survival time; dose: 50.0 mg/kg/injection; schedule: Q04DX002 (ip); vehicle: saline with Tween-80; higher = longer survival
Inconclusive results and toxic doses are left out.
# T/C per entry

COMPOUND	T/C
CCCC(C=O)(CCN1CCCC1)c1cccc2ccccc12 (stereo unspecified)	94 % of control
CC(C)C(C=NCC(CCN1CCOCC1)(c1ccc2ccccc2c1)C(C)C)(CCN1CCOCC1)c1ccc2ccccc2c1 (stereo unspecified)	98 % of control
NNCCO	105 % of control
O=C(O)c1cccc(Cl)c1F	97 % of control
CCCCCP(=O)(CCCCC)CCCCC	94 % of control
CCCCC(C=O)(CCN1CCCC1)c1cccc2ccccc12 (stereo unspecified)	100 % of control

----------
# Test system: L1210 leukemia ip in BDF1 mice, survival T/C
# ASSAY METHOD TEXT: NCI In Vivo Anticancer Drug Screen. Data for tumor model L1210 Leukemia (intraperitoneal) in B6D2F1 (BDF1) mice
# CONDITION DESCRIPTION: endpoint: mean survival time; dose: 100.0 mg/kg/injection; schedule: Q04DX003 (ip); vehicle: saline; higher = longer survival
Inconclusive results and toxic doses are left out.
# T/C per entry
MEASURED ENDPOINT: T/C

COMPOUND	STUDY TARGET	MEASURED ENDPOINT	MEASURED
O=C1OCC2(CO)SC(c3ccccc3)NC12 (stereo unspecified)	L1210 leukemia ip in BDF1 mice, survival T/C	T/C	98 % of control
CCOC(=O)NC1=C(NCCCl)C(=O)C(NC(=O)OCC)=C(NCCCl)C1=O	L1210 leukemia ip in BDF1 mice, survival T/C	T/C	90 % of control
CCCCOB(OCCCC)Oc1c(C(C)(C)C)cccc1C(C)(C)C	L1210 leukemia ip in BDF1 mice, survival T/C	T/C	89 % of control
O=C1OC(c2ccc([N+](=O)[O-])cc2)Sc2ccccc21 (stereo unspecified)	L1210 leukemia ip in BDF1 mice, survival T/C	T/C	106 % of control
CCC(SC(C)=O)C(=O)O (stereo unspecified)	L1210 leukemia ip in BDF1 mice, survival T/C	T/C	89 % of control
NC(Cc1ccc(O)c(I)c1)C(=O)O (stereo unspecified)	L1210 leukemia ip in BDF1 mice, survival T/C	T/C	101 % of control

Every entry's value here was drawn from PubChem BioAssay AID248.
